# tested target: T1, mouse platelet glycoprotein I(b)α (GPIbα) on wild-type mouse platelets (mouse, UniProt O35930 17-734)
# T1 construct: whole, on cells; also called mouse GPIbα
# T1 sequence (looked up): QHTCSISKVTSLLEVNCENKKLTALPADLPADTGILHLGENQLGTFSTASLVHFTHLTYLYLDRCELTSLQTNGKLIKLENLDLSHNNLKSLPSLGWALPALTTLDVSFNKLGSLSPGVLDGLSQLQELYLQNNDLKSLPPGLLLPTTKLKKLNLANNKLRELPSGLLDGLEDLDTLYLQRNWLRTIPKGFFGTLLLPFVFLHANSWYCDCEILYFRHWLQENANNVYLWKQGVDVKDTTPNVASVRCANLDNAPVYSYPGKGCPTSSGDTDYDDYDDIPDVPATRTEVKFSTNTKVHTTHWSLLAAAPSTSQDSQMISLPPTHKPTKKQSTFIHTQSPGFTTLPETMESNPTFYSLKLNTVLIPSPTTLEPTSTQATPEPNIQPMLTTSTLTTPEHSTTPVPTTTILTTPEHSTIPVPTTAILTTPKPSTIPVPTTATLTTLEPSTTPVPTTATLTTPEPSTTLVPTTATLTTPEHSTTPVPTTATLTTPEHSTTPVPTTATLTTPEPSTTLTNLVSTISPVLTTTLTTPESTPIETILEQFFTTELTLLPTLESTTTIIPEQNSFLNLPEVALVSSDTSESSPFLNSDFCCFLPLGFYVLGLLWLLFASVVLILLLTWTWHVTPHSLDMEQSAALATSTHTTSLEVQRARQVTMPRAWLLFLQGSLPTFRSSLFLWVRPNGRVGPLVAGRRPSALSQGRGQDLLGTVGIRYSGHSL
# assay explanation: flow cytometry, washed wild-type mouse platelets, Fab 5 µg/mL, FITC anti-human-Fab detection
# Protocol: Specificity. Human and mouse platelet-rich plasma (PRP) was prepared by centrifugation at 300 g for 7 min, and was washed by transferring 200 µL PRP into 10 mL PBS followed with 800 g centrifugation for 10 min. The supernatant was then removed and platelets were re-suspended in 200 µL PBS. Washed platelets (10 µL) were incubated with the different antibodies (2.5-5 µg/mL) in a 200 µL system at room temperature for 30 min, and detected by FITC labeled anti-human-Fab antibody. […]
test readout: binding result

humanized Fab H001 (Fab, V domains shown, Fab with human IgG1 CH1 and human kappa constant region; also called Fab H001 antibody; VH1 + VL2) VH: QVQLVESGGGLVKPGGSLRLSCAASGFTFSSFAMSWIRQAPGKGLEWVSSITSAGTPYYPDSVLGRFTISRDNAKNSLYLQMNSLRAEDTAVYYCARSRGYEDYFDYWGQGTLVTVSS VL: DIQMTQSPSSLSASVGDRVTITCKSSQSLLNSRNQKNYLAWYQQKPGKAPKLLIYFTSTRESGVPSRFSGSGSGTDFTLTISSLQPEDFATYYCQQHYSSPWTFGQGTKVEIKR : binds
